target: HLA-DRB1*0301 (human); assay: competition binding; conditions: modification not given
Catalogue of IC50 readings, one per entry.

Examples from the recorded data:
EQRYTCHVQHEGLPKP [p48]
> 100 µM
VEWLRRYLENGKETL [p35*]
> 100 µM

Inquiry: Name the reported IC50 value associated with the binder HRVDLGTLRGYYNQS [p13*]
Reply text: > 100 µM

Inquiry: Record request: IC50 value, item GTFQKWAAVVVPSGQ [p45*]
Reply text: > 100 µM

Inquiry: Return reported IC50; argument: FQKWAAVVVPSGQEQR [p46*]
Reply text: 7.35 µM

Inquiry: Could you share which IC50 value was measured for PEYWDGETRKVKAHS [p11] ?
Reply text: > 100 µM

Inquiry: Form field: reported IC50 of EQLRAYLEGTCVEWL [p32]
Reply text: 1.84 µM

Inquiry: Look at this binder and give its reported IC50. RRYLENGKETLQRTD [p36]
Reply text: > 100 µM

Inquiry: Report IC50 for YAYDGKDYIALKEDL [p24] please.
Reply text: > 100 µM

Inquiry: Record request: IC50 value, item RSWTAADMAAQTTKH [p28]
Reply text: > 100 µM

Inquiry: What measured IC50 goes with THMTHHAVSDHEATL [p38] ?
Reply text: > 100 µM

Inquiry: IC50 lookup needed for AHVAEQLRAYLEGTC [p31] , thanks.
Reply text: > 100 µM

Inquiry: Entry GTLRGYYNQSEAGSH [p15*] has what IC50?
Reply text: > 100 µM

Inquiry: What does the data say about its IC50? Entry: PRFIAVGYVDDTQFV [p4]
Reply text: 12 µM

Inquiry: Any idea what IC50 was measured for HKWEAAHVAEQLRAY [p30] ?
Reply text: 16.5 µM
